Data provenance: patent US20230391752A1

Test system: HBV
Assay: In vitro anti-HBV activity in HepG2.2.15 cell line (intracellular HBV DNA by qPCR at 1 μM)
Assay type: cell-based
Settings: Hepatitis B virus, 144 h; HepG2.2.15 cells, 1 μM compound, 6 days, intracellular HBV DNA as percentage compared to vehicle control (0.5% DMSO)
Please go through the items and note down their activity at 1 µM.

Some molecules with known activity at 1 µM results, for comparison:
> print(dat)
                                   compound      value
1  N#Cc1ncccc1-c1ccc(C(=O)N2CC[C@H](C(=O)Nc3cc(F)c(F)c(F)c3)C2)[nH]1      < 45%
2  N#Cc1cc(NC(=O)[C@H]2CCN(C(=O)c3cc4cccnc4[nH]3)C2)ccc1F  70 to 80%
3  O=C(Nc1cc(F)c(F)c(F)c1)[C@H]1CCN(C(=O)c2ccc(-c3cnccn3)[nH]2)C1  45 to 60%

Dear colleague, could you please provide activity at 1 µM for the molecules listed below?
1. Cc1cc(NC(=O)[C@H]2CCN(C(=O)c3cc4cccnc4[nH]3)C2)ccc1F
2. N#Cc1cc(NC(=O)[C@H]2CCN(C(=O)c3ccc(-c4cccnc4)[nH]3)C2)ccc1F

1: 60 to 70%; 2: 60 to 70%

State the recorded activity at 1 µM for every item in the following list.
1. Cc1ncnc(C)c1-c1ccc(C(=O)N2CC[C@H](C(=O)Nc3cc(F)c(F)c(F)c3)C2)[nH]1
2. Cc1ccc2cc(C(=O)N3CC[C@H](C(=O)Nc4cc(F)c(F)c(F)c4)C3)[nH]c2c1
3. C[C@H]1[C@@H](C(=O)Nc2cc(F)c(F)c(F)c2)CCN1C(=O)c1[nH]c2ccccc2c1CO
4. Cc1cc(NC(=O)[C@H]2CCN(C(=O)c3ccc(-c4c(C)cnnc4C)[nH]3)C2)ccc1F

1: < 45%; 2: 60 to 70%; 3: 60 to 70%; 4: 45 to 60%
